method description: growth inhibition of non-replicating M. tuberculosis (AID 488890);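 further: plate controls were DMSO cells for no effect and high antibiotic wells for full effect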
condition set: Mycobacterium tuberculosis non-replicating, at 25 µM, stronger effect = higher value
Out of some 320,000 compounds screened, about 1,300 (0.41%) were called active. Not shown: some 3% with an inconclusive outcome. Not all results are given here. Measured potencies and affinities stand elsewhere.
Exercise: state measured inhibition for each of the compounds provided.
Give the number; % is assumed, so skip it.

Record COc1cc(NC(=O)c2ccc([N+](=O)[O-])o2)ccc1NC(=O)c1cccs1 , field inhibition: 44

Record COc1cc(/C=C2\SC(=O)N(CC(=O)Nc3ccc(C)cc3)C2=O)cc(Cl)c1OCC(=O)O , field inhibition: 12.1

Record CCN1C(=O)CC(N2CCC(C(=O)N3CCCCCC3)CC2)C1=O (centres undefined) , field inhibition: 77

Record O=C(OCCN1C(=O)c2ccccc2C1=O)c1ccco1 , field inhibition: 15.3

Record O=C(OCCCN1C(=O)c2ccccc2C1=O)c1ccco1 , field inhibition: 10.6

Record COc1cc(C)c(Cl)cc1S(=O)(=O)NCc1ccccn1 , field inhibition: -0.9

Record COc1ccc(NC(=O)COc2ccc(C(=O)NCc3cccnc3)cc2OC)cc1 , field inhibition: 10.8

Record NC(=O)COc1c(-c2ccc(Br)o2)oc2ccccc2c1=O , field inhibition: -1.98

Record COc1ccc(OC)c(Nc2nc(N)nc(CSc3nnc(N)s3)n2)c1 , field inhibition: -6.45

Record COc1ccc(C(CNC(=O)c2c(C)nn(Cc3ccccc3)c2Cl)N2CCOCC2)cc1 (centres undefined) , field inhibition: 11.7

Record CCOc1nc2ccccc2cc1/C=C/C(=O)O , field inhibition: 16.5

Record O=C(CCc1nnc2n(Cc3ccc(F)cc3)c(=O)c3ccccc3n12)N1CCN(c2ccccn2)CC1 , field inhibition: -3.25

Record CC1CCCC(NC(=O)COC(=O)c2ccc(Cl)nc2)C1C (centres undefined) , field inhibition: -6.83

Record Cc1ccc(OCC(=O)OC(C)C(=O)NC2CCCCC2C)cc1C (centres undefined) , field inhibition: 65.7

Record CS(=O)(=O)N(CC(=O)N1CCN(c2ccc(F)cc2)CC1)c1cccc(Cl)c1 , field inhibition: -4.05

Record CCOC(=O)c1ccc(CNCc2ccc(Br)cc2)cc1 , field inhibition: 43.5

Record O=C(COC(=O)c1cc([N+](=O)[O-])ccc1Cl)NC1CCCC1 , field inhibition: 73.8

Record O=C(COC(=O)c1ccc(Br)cc1)NC1CCCC1 , field inhibition: 46.5

Record c1cnc2nc(-c3ccc4c(c3)OCO4)cn2c1 , field inhibition: 14.6

Record CC(=O)NCC(=O)OCC(=O)c1ccc(Br)cc1 , field inhibition: 27.9

Record O=C(Nc1cccc(NC(=O)c2cccs2)c1)c1ccc(Br)o1 , field inhibition: 40.6

Record COc1ccc(NC(=O)CN(C)C(=O)c2ccc3ccccc3n2)cc1 , field inhibition: -6.38

Record Nc1c(Cl)cc(Cl)cc1C(=O)OCC(=O)N1CCOCC1 , field inhibition: 17.1

Record Cc1ccc(C(=O)OCC(=O)NC2CCCCC2)o1 , field inhibition: 36.7
